Below: a set of entries, each annotated with reported TGI.
Tested on: SK-OV-3 ovarian
protocol.details: NCI tumour cell line growth inhibition, 48 h

Here is how some compounds turned out for TGI.
compound	TGI
CC[C@@H](C(=O)O)C1CC[C@H](C)C([C@@H](C)[C@H](O)[C@H](C)C(=O)[C@H](CC)C2O[C@]3(C=C[C@@H](O)[C@]4(CC[C@@](C)(C5CC[C@](O)(CC)[C@H](C)O5)O4)O3)[C@H](C)C[C@@H]2C)O1 (stereo partly specified)	31.8 µM
CSc1ccc(C2OC(=O)c3ccccc32)c2ccccc12 (stereo unspecified)	> 100 µM
CCOC(=O)N/N=C(/OCC)c1ccccc1	> 100 µM

Notebook: c1ccc([P+](Cc2ccc(C[P+](c3ccccc3)(c3ccccc3)c3ccccc3)cc2)(c2ccccc2)c2ccccc2)cc1 , TGI read as > 100 µM

Notebook: CCc1ccccc1NC(=O)C(=O)CC(=O)c1sc(Nc2ccccc2)nc1C , TGI read as > 100 µM

Notebook: CCOc1ccc(NC(=O)C(=O)CC(=O)C2=C(C)Nc3ccccc3S2)cc1 , TGI read as > 50 µM

Notebook: CC(C)c1cc(-c2n[nH]c(=O)n2-c2ccc3c(ccn3C)c2)c(O)cc1O , TGI read as > 43.5 µM

Notebook: O=C(CCCN1CCC2(CC1)OC(=O)N(c1ccccc1)C2=O)c1ccccc1 , TGI read as > 100 µM

Notebook: CC(=O)NC(CS/N=N/c1nc[nH]c1C(N)=O)C(=O)O (stereo unspecified) , TGI read as > 100 µM

Notebook: COc1cc(OC)c2c(c1)C(=O)C(CC(C)O)=CC2=O (stereo unspecified) , TGI read as 31.9 µM

Notebook: COC(=O)C1=CC2CCCC1(O)C(C(C)=O)C2 (stereo unspecified) , TGI read as > 100 µM

Notebook: CCOC(=O)c1ccc(N=C2C(=S)N(c3ccc(C(=O)OCC)cc3)C(=N)N2/N=C/c2ccccc2)cc1 , TGI read as 59 µM

Notebook: Nc1ccccc1C#C/C=C\C#Cc1cccs1 , TGI read as > 52.3 µM

Notebook: COc1ccc2oc(=N)c(C(=O)NCc3ccccc3)cc2c1 , TGI read as 56.7 µM

Notebook: CC(=O)Nc1cc([As](=O)(O)O)ccc1O , TGI read as > 100 µM

Notebook: O=CC(=C(I)I)c1ccccc1 , TGI read as 29.9 µM

Notebook: CCCCCCCCCCCC(=O)Oc1c(Cl)cc(Cl)c(OC(=O)C(=O)Oc2c(Cl)cc(Cl)c(OC(=O)CCCCCCCCCCC)c2Cl)c1Cl , TGI read as > 100 µM

Notebook: O=C1C(Br)=CC2(C=C1Br)CCNC1=C2C(=O)c2ccccc2C1=O , TGI read as > 100 µM

Notebook: COc1ccc(-c2nn3c(-c4cc(F)c(Cl)cc4Cl)nnc3s2)cc1 , TGI read as > 100 µM

Notebook: O=c1c2nn3c(=O)n(-c4ccccc4)c(=O)c3nn2c(=O)n1-c1ccccc1 , TGI read as > 100 µM
